Read-out: Lipoprotein lipase (LPL), LPL (gene 4023)
MEASUREMENT PROTOCOL: LTEA_HepaRG_LPL: Life Technologies and Expression Analysis (LTEA) Assay for Lipoprotein lipase (LPL) using HepaRG (AID 2283515)
TEST SETTINGS: mRNA level, 48 h; actives raise or lower the signal
Activity calls are given as the source filed them. The calls were made as follows: active = hit-call score of the fitted dose curve at least 0.9, where 1 is the maximum; inactive = score below 0.9.
The categories you may choose from are T (active), F (inactive)

Please let me know the test result on file for OCCOCCOCCO .
F

Call for entry OCc1ccccc1 :
F

Could you please tell me the result logged for Nc1ccn([C@@H]2O[C@H](CO)[C@@H](O)[C@@H]2O)c(=O)n1 in this assay?
F

So what was the verdict on C=CN1CCCC1=O in this test?
F

What call does the record list for CCCCCCOC(=O)CC(CC(=O)OCCCCCC)(OC(=O)CCC)C(=O)OCCCCCC ?
F

Please indicate how the test categorized O=C(O)[C@H](O)[C@@H](O)C(=O)O .
F

# fetch the recorded call for CC[C@H](C)C(=O)O[C@H]1C[C@H](O)C=C2C=C[C@H](C)[C@H](CC[C@@H](O)C[C@@H](O)CC(=O)O)[C@H]21 here
F

Test call, this compound: CCCCCOC(C)=O
F

Kindly provide the recorded test outcome for the following compound: CCCCCCCCCCCCCCCCOS(=O)(=O)O
F

For this compound, state the assay outcome: c1ccc2c(c1)-c1cccc3c1c-2cc1ccccc13
T

Continuing:
Test call for this compound, please: OC(CCl)CCl
F

Call for entry CCCCCCCC1CCC(=O)O1 (configuration not stated) :
F

Give the logged outcome of this assay for the following compound: CCCOc1ccc(S(=O)(=O)N2CCN(CC)CC2)cc1-c1nc2c(CC)n(Cc3ccccn3)nc2c(=O)[nH]1
T

Kindly provide the recorded test outcome for the following compound: CCCCCCCCCC
F

Which outcome was assigned to Cn1cc[nH]c1=S in this test?
F

# fetch the recorded call for CC(C)CC(C)O (configuration not stated) here
F

What did the test return for CCCc1ccccc1 ?
F

Kindly provide the recorded test outcome for the following compound: CCc1cccc(CC)c1N
F

Recorded call for OCC(CO)(CO)CO ?
F

Please let me know the test result on file for CCCCCCCC/C=C\CCCCCCCC(=O)OC[C@@H](O)[C@H]1OC[C@H](O)[C@H]1O .
F

###

MEASUREMENT PROTOCOL: APR_HepG2_MitoMass_24hr: Apredica 24-hour HepG2 Assay for Mitochondrial Mass (AID 2282912)
TEST SETTINGS: high-content imaging, actives raise or lower the signal
Active and inactive are the calls of the source. How the source made its calls: active means hit-call score of the fitted dose curve at least 0.9, where 1 is the maximum; inactive means score below 0.9.
PROPERTY LABEL: AC50

Here's what some known entries look like.
Which AC50 reading was recorded for the molecule OC[C@H]1O[C@@](CO)(O[C@H]2O[C@H](CO)[C@@H](O)[C@H](O)[C@H]2O)[C@@H](O)[C@@H]1O ?
inactive

Entry CCCCOC(=O)c1ccccc1 has what AC50?
inactive

Any idea what its AC50 is? The molecule is C[C@]12C=CC(=O)C=C1CC[C@H]1[C@@H]3C[C@@H](O)[C@](O)(C(=O)CO)[C@@]3(C)C[C@H](O)[C@@]12F
inactive

May I ask what AC50 has been recorded for C[C@@H](Oc1ccc(CNC(=O)c2cccnc2Oc2ccc3c(c2)OCO3)c(F)c1)C(=O)O ?
inactive

Name the recorded AC50 for c1ccc2c(c1)-c1cccc3c1c-2cc1ccccc13 .
8.67 µM (active)

Quick one: AC50 of Cc1nc(-c2ccccn2)ncc1C(=O)Nn1cc(C)c2cc(F)ccc21 ?
108 µM (active)

Name the recorded AC50 for C=CN1CCCC1=O .
inactive

What value of measured AC50 is listed for CC1(C)C(=O)N(Cl)C(=O)N1Cl ?
inactive

Others:
Data request, read-out AC50, for COc1cc(C(C)C)c2c(c1)S(=O)(=O)N(COc1cc(=O)n3cccc(OCCN4CCCCC4)c3n1)C2=O
29.1 µM (active)

Given the molecule CC(C)C(=O)Nc1ccc([N+](=O)[O-])c(C(F)(F)F)c1 , what is its reported AC50?
92.2 µM (active)
